test system: PDGFR; test: Inhibition of PDGFR phosphorylation; type: biochemical
quantity measured: EC50

Ask: Param item = c1cnc2ccc(Nc3nc(NC4CC4)c4nc[nH]c4n3)cc2c1 ; retrieve measured EC50.
Result: ~1000 nM

###

tested on: AKT; assay: Inhibition of AKT phosphorylation; assay type: biochemical
pEC50: −log10 of the molar value.
quantity measured: pEC50

Ask: Param item = c1cnc2ccc(Nc3nc(NC4CC4)c4nc[nH]c4n3)cc2c1 [Compound A] ; retrieve measured pEC50.
Result: ~7.00
